This section presents molecules with their documented pIC50 values.
# TARGET OR SYSTEM: GST-TβR-I (Homo sapiens, UniProt P36897, T204D)
# Construct: the complete cytoplasmic part (amino acid residues 148-503) of constitutively active TβR-I (T204D) FLAG-tagged at the C-terminus; made in house; host or cells: E. coli
# Sequence (P36897 148-503 T204D): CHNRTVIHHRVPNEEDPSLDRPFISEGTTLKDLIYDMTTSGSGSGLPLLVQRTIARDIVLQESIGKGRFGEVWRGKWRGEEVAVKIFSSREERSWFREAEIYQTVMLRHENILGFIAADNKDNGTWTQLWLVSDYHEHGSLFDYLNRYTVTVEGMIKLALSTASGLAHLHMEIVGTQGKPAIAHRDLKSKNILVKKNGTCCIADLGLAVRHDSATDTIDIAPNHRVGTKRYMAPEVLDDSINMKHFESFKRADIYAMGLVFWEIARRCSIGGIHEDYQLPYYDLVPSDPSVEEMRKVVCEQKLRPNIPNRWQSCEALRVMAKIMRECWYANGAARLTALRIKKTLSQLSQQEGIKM
# TEST PROTOCOL: In vitro kinase assay: phosphorylation of GST-Smad3deltaMH1 by GST-TβR-I
# Assay type: biochemical
# CONDITIONS: in vitro kinase assay, 5 μM ATP; read-out: IC50 GST-TβRI in vitro
pIC50: −log10 of the molar value.
RECORDED ENDPOINT: pIC50

{"MOLECULE": "CC1CNCCN1S(=O)(=O)c1cccc2cnccc12.Cl (stereo not drawn) [H7]", "TARGET OR SYSTEM": "GST-TβR-I (Homo sapiens, UniProt P36897, T204D)", "RECORDED ENDPOINT": "pIC50", "ENDPOINT VALUE": 3.70}
{"MOLECULE": "Cc1nc(-c2ccncc2)c(-c2ccccc2)o1 [SC68376]", "TARGET OR SYSTEM": "GST-TβR-I (Homo sapiens, UniProt P36897, T204D)", "RECORDED ENDPOINT": "pIC50", "ENDPOINT VALUE": 5.30}
{"MOLECULE": "CCc1[nH]c(-c2ccc(OC)cc2)nc1-c1ccncc1 [SB202474]", "TARGET OR SYSTEM": "GST-TβR-I (Homo sapiens, UniProt P36897, T204D)", "RECORDED ENDPOINT": "pIC50", "ENDPOINT VALUE": 4.52}
